system: SK-BR-3; assay: Cytotoxicity against human SKBR3 cells after 72 hrs by celltiter-glo assay; format: functional, cell-based; conditions: sk-br-3
value_kind: IC50
Number first, unit second.

Would you kindly share the measured IC50 for COC1=C2C[C@@H](C)C[C@H](OC)[C@H](O)[C@@H](C)/C=C(\C)[C@H](OC(N)=O)[C@@H](OC)/C=C\C=C(/C)C(=O)NC(=CC1=O)C2=O [GELDANAMYCIN] ?
41 nM

====

target: Heat shock protein HSP 90-beta (Homo sapiens, UniProt P08238); assay: Binding affinity to human recombinant HSP90
Sequence (P08238 whole entry): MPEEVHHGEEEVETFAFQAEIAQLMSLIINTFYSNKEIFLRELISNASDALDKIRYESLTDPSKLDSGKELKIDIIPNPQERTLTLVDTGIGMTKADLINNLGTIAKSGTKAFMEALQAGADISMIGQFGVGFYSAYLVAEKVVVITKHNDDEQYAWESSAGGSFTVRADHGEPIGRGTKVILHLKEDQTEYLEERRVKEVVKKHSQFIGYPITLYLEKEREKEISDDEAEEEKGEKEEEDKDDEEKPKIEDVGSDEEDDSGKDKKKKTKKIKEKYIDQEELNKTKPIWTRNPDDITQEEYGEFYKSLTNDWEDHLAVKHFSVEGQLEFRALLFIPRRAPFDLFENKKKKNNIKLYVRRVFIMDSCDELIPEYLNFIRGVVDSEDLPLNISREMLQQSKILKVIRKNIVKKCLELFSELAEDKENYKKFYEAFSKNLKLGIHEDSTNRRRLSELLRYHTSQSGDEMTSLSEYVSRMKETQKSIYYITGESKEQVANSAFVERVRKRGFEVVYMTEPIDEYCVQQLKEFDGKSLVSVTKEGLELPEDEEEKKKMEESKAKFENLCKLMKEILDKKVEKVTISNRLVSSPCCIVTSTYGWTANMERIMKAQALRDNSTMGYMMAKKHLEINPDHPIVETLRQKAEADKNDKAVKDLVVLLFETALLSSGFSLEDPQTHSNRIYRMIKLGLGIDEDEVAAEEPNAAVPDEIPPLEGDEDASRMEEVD
Documented Kd across a set of compounds
Write the value in µM as a bare number.

For C=CCO[C@H]1[C@@H](OC)C[C@H](C)CC2=C(N3CCC3)C(=O)C=C(NC(=O)/C(C)=C/C=C\[C@H](OC)[C@@H](OC(N)=O)/C(C)=C/[C@@H]1C)C2=O , what is its reported Kd?
2.9

Now examine the next entry.
Quick one: Kd of COC1=C2C[C@@H](C)C[C@H](OC)[C@H](OC)[C@@H](C)/C=C(\C)[C@H](OC(N)=O)[C@@H](OC)/C=C\C=C(/C)C(=O)NC(=CC1=O)C2=O ?
0.49
